Tested on: HBV viral production from HepAD38 cells
Test: Activity of test compounds on viral production from HepAD38 cells (viral load by qPCR of HBV core sequence in supernatant)
Type: cell-based
Conditions: Hepatitis B virus, 120 h, 5 days incubation, HBV DNA in supernatant by qPCR, top concentration 10 μM, read-out: Viral Load EC50 Activity range
pEC50: −log10 of the molar value.
Listing: pEC50 of selected compounds

Can you look up the measured pEC50 of CN1C(C(=O)Nc2ccc(F)c(Cl)c2)CC(c2ccc(-c3cnn(C)c3)cc2)NS1(=O)=O (racemic) [HBV-CSU-246] for me?
> 6.00

Please give the measured pEC50 for this compound: CN1C(C(=O)Nc2cccc(C(F)(F)F)c2)CC(c2cccs2)NS1(=O)=O (centres unmarked) [HBV-CSU-012]
5.30 to 6.00

FYI, the data here is from patent US11078170B2.
